SYSTEM_UNDER_TEST: His-tagged N-terminal ATP binding domain (amino acid residues 9-236) of HSP90α (Homo sapiens, UniProt P07900)
METHOD_NOTES: HSP90 inhibitor binding potency: TRF competition binding assay
ASSAY_CONTEXT: Table I; read-out: Hsp90 IC50 Range
Protocol: HSP90 Inhibitor Binding Potency: TRF Binding Assay In this example, the binding potency of HSP90 inhibitors as measured by a TRF binding assay is described. TRF competition binding assays were performed to determine the binding potency (IC50 values) of HSP90 inhibitors. […] After gentle shaking for 10 minutes, the plates were read in VICTOR for europium counts.
pIC50: −log10 of the molar value.
Exercise: for every item that follows, state its recorded pIC50.

Sample records with pIC50:
| MOLECULE | pIC50 |
| --- | --- |
| Cc1nc(N)nc2c1C(=O)CC(c1ccccc1-c1cn[nH]c1)C2 (stereo not drawn) | 5.00 to 6.00 |
| Cc1nc(N)nc2c1C(=O)CC(c1ccccc1-c1c(F)cccc1F)C2 (stereo not drawn) | > 6.00 |
| Cc1nc(N)nc2c1C(=O)CC(c1ccccc1-c1ccccc1C(N)=O)C2 (stereo not drawn) | > 6.00 |
| Cc1nc(N)nc2c1C(=O)CC(c1ccccc1OC1CCCCC1)C2 (stereo not drawn) | > 6.00 |
| Cc1nc(N)nc2c1C(=O)CC(c1ccccc1N1CCOCC1)C2 (stereo not drawn) | > 6.00 |
| Cc1nc(N)nc2c1C(=O)CC(c1ccccc1-c1cccc3cc[nH]c13)C2 (stereo not drawn) | > 6.00 |
| COc1cccc(-c2cccc(OC)c2C2CC(=O)c3c(C)nc(N)nc3C2)n1 (stereo not drawn) | > 6.00 |
| Cc1nc(N)nc2c1C(=O)CC(c1cccnc1Cl)C2 (stereo not drawn) | < 5.00 |

Required: pIC50, one value per molecule below.
1. Cc1nc(N)nc2c1C(=O)CC(c1ccccc1-c1cccc3[nH]ccc13)C2 (stereo not drawn)
2. Cc1nc(N)nc2c1C(=O)CC(c1cccc3ccccc13)C2 (stereo not drawn)
3. Cc1nc(N)nc2c1C(=O)CC(c1ccccc1-c1cccc(N(C)C)c1)C2 (stereo not drawn)

["> 6.00", "5.00 to 6.00", "< 5.00"]

Fill in reported pIC50 for this entry: COc1ccc(-c2cncnc2)c(C2CC(=O)c3c(C)nc(N)nc3C2)c1 (stereo not drawn)
5.00 to 6.00

###

SYSTEM_UNDER_TEST: His-tagged N-terminal ATP binding domain (amino acid residues 9-236) of HSP90α (Homo sapiens, UniProt P07900)
METHOD_NOTES: HSP90 inhibitor binding potency: TRF competition binding assay
ASSAY_CONTEXT: Table I; read-out: Hsp90 IC50 Range
pIC50: −log10 of the molar value.
Exercise: for every item that follows, state its recorded pIC50.

Required: pIC50, one value per compound below.
1. COc1ccc(F)cc1-c1ccccc1C1CC(=O)c2c(C)nc(N)nc2C1 (stereo not drawn)
2. Cc1ncccc1-c1ccccc1C1CC(=O)c2c(C)nc(N)nc2C1 (stereo not drawn)
3. COc1ccccc1-c1cc(F)ccc1C1CC(=O)c2c(C)nc(N)nc2C1 (stereo not drawn)
4. Cc1nc(N)nc2c1C(=O)CC(c1nn(C)cc1Br)C2 (stereo not drawn)
5. Cc1nc(N)nc2c1C(=O)CC(c1ccccc1S(=O)(=O)c1ccccc1)C2 (stereo not drawn)
6. COc1cccc(Oc2ccccc2)c1C1CC(=O)c2c(C)nc(N)nc2C1 (stereo not drawn)
7. COc1ccc(-c2cccnc2)c(C2CC(=O)c3c(C)nc(N)nc3C2)c1 (stereo not drawn)

> 6.00
> 6.00
> 6.00
< 5.00
< 5.00
5.00 to 6.00
> 6.00

###

SYSTEM_UNDER_TEST: His-tagged N-terminal ATP binding domain (amino acid residues 9-236) of HSP90α (Homo sapiens, UniProt P07900)
METHOD_NOTES: HSP90 inhibitor binding potency: TRF competition binding assay
ASSAY_CONTEXT: Table I; read-out: Hsp90 IC50 Range
Exercise: for every item that follows, state its recorded IC50.

Required: IC50, one value per compound below.
1. Cc1nc(N)nc2c1C(=O)CC(c1c(OCCN3CCCCC3)cccc1-c1cccnc1F)C2 (stereo not shown)
2. Cc1nc(N)nc2c1C(=O)CC(c1cccnc1-c1ccccn1)C2 (stereo not shown)
3. Cc1nc(N)nc2c1C(=O)CC(c1ccccc1Oc1ccccn1)C2 (stereo not shown)
4. Cc1nc(N)nc2c1C(=O)CC(c1c(OCCN)cccc1-c1cccnc1F)C2 (stereo not shown)
5. Cc1nc(N)nc2c1C(=O)CC(c1ccccc1-c1cc(F)cnc1Cl)C2 (stereo not shown)
6. Cc1nc(N)nc2c1C(=O)CC(c1c(O)cccc1Cl)C2 (stereo not shown)

1: < 1000 nM; 2: 1000 to 10000 nM; 3: < 1000 nM; 4: < 1000 nM; 5: < 1000 nM; 6: > 10000 nM

Fill in reported IC50 for this entry: Cc1nc(N)nc2c1C(=O)CC(c1ccccc1-c1c(C)noc1C)C2 (stereo not shown)
1000 to 10000 nM

###

SYSTEM_UNDER_TEST: His-tagged N-terminal ATP binding domain (amino acid residues 9-236) of HSP90α (Homo sapiens, UniProt P07900)
METHOD_NOTES: HSP90 inhibitor binding potency: TRF competition binding assay
ASSAY_CONTEXT: Table II; read-out: Hsp90 IC50 Range
Experimental: HSP90 Inhibitor Binding Potency: TRF Binding Assay In this example, the binding potency of HSP90 inhibitors as measured by a TRF binding assay is described. TRF competition binding assays were performed to determine the binding potency (IC50 values) of HSP90 inhibitors. […] After gentle shaking for 10 minutes, the plates were read in VICTOR for europium counts.
Exercise: for every item that follows, state its recorded IC50.

| COMPOUND | IC50 |
| --- | --- |
| COc1ccc(C(F)(F)F)cc1-n1ccnc1C1CC(=O)c2c(C)nc(N)nc2C1 (stereo not shown) [Compound 199] | 1000 to 10000 nM |
| Cc1nc(N)nc2c1C(=O)CC(c1ncccc1OC(C)C)C2 (stereo not shown) [Compound 175] | < 1000 nM |
| Cc1nc(N)nc2c1C(=O)CC(c1nccn1-c1cccc(OC(F)(F)F)c1)C2 (stereo not shown) [Compound 198] | > 10000 nM |
| Cc1nc(N)nc2c1C(=O)CC(c1c(F)cccc1-c1cccnc1F)C2 (stereo not shown) [Compound 217] | < 1000 nM |
| COc1nc(-c2cc(F)ccc2C2CC(=O)c3c(C)nc(N)nc3C2)cnc1Cl (stereo not shown) [Compound 334] | < 1000 nM |

Required: IC50, one value per compound below.
1. Nc1cccc(Cc2nc(N)nc3c2C(=O)CC(c2ccccc2)C3)c1 (stereo not shown) [Compound 309]
2. COc1cccc(-n2ccnc2[C@H]2CC(=O)c3c(C)nc(N)nc3C2)n1 [Compound 203]
3. COc1nc(-n2ccnc2[C@H]2CC(=O)c3c(C)nc(N)nc3C2)ncc1C [Compound 207]

> 10000 nM
1000 to 10000 nM
> 10000 nM

Required: IC50, one value per compound below.
1. Cc1nc(N)nc2c1C(=O)CC(c1ccc(F)cc1OC1CCCC1)C2 (stereo not shown) [Compound 181]
2. COc1nc(-c2cc(F)ccc2C2CC(=O)c3c(C)nc(N)nc3C2)ncc1C (stereo not shown) [Compound 259]

< 1000 nM
< 1000 nM

###

SYSTEM_UNDER_TEST: His-tagged N-terminal ATP binding domain (amino acid residues 9-236) of HSP90α (Homo sapiens, UniProt P07900)
METHOD_NOTES: HSP90 inhibitor binding potency: TRF competition binding assay
ASSAY_CONTEXT: Table II; read-out: Hsp90 IC50 Range
MEASURED_QUANTITY: IC50

| COMPOUND | IC50 |
| --- | --- |
| Cc1nc(N)nc2c1C(=O)CC(c1ccccc1S(=O)(=O)C(C)(C)C)C2 (centres unmarked) | < 1 µM |
| Nc1nc(Cc2ccc(F)cc2)c2c(n1)CC(c1ccccc1)CC2=O (centres unmarked) | 1 to 10 µM |
| Cc1nc(N)nc2c1C(=O)CC(c1c(F)cccc1Br)C2 (centres unmarked) | 1 to 10 µM |
| Cc1nc(N)nc2c1C(=O)CC(c1ccc(F)cc1-c1cnc(N)nc1)C2 (centres unmarked) | 1 to 10 µM |
| Cc1ccc(-n2ccnc2C2CC(=O)c3c(C)nc(N)nc3C2)c(F)c1 (centres unmarked) | 1 to 10 µM |
| COc1nc(-c2cc(F)ccc2[C@H]2CC(=O)c3c(C)nc(N)nc3C2)ncc1Cl | < 1 µM |
| Cc1nc(N)nc2c1C(=O)CC(c1ccc(F)cc1-c1nccnc1F)C2 (centres unmarked) | < 1 µM |

Here is the next item to consider.
Fill in reported IC50 for this entry: CCc1nc(N)nc2c1C(=O)CC(c1ccc(F)cc1-c1cnc(N)c(OC)n1)C2 (centres unmarked)
< 1 µM
